All values here come from patent US9969698B2.

assay: Solubility assessment in solvents; assay type: physicochemical; conditions: acetone, organic solvent or mixture, thermodynamic from solid; read-out: Solubility at RT
Readout label: solubility at 10 min

## Input So what's the measured solubility at 10 min for this one? COc1cc(OC)cc(N2CCN(C(=O)Nc3nc4cc(F)ccc4nc3OC)CC2)c1 [RX-5902]
## Output < 100 mg/mL

----------
experiment: Human pharmacokinetics, dose-ranging study; type: in vivo; conditions: human, plasma, po, 100 mg, oral capsule; 100 mg, 1 per week; Day 1; fasted; read-out: Cmax
Readout label: Cmax (ng/mL)
Unit ng/mL implied. Number only.

## Input So what's the measured Cmax for this one? COc1cc(OC)cc(N2CCN(C(=O)Nc3nc4cc(F)ccc4nc3OC)CC2)c1
## Output 252
